# experiment_notes: Evaluated for sensitizer enhancement ratio determined by dividing the D0 value from the control radiation survival curve by the […] from the radiation survival curve in the presence at a concentration of 0.1 mM.
# Type: functional

molecule | Ratio
COCC(O)Cn1cnc([N+](=O)[O-])c1I (centres undefined) | 1.6
O=C(Cn1cnc(I)c1[N+](=O)[O-])NCc1cccnc1 | 1.7
COCC(O)Cn1cnc(I)c1[N+](=O)[O-] (centres undefined) | 1.4
CCOC(=O)Cn1cnc(I)c1[N+](=O)[O-] | 1.8

----------
Measured PC accompanies every entry in the list below.
# experiment_notes: Compound evaluated for the partition coefficient (PC)
# Type: physicochemical
# test_conditions: octanol/water

compound | PC
CCOC(=O)Cn1cnc([N+](=O)[O-])c1I | 3.7
COCC(O)Cn1cnc(I)c1[N+](=O)[O-] (stereo not given) | 7.8
O=C(Cn1cnc([N+](=O)[O-])c1I)NCc1ccc[n+]([O-])c1 | 0.04
O=C(Cn1cnc(I)c1[N+](=O)[O-])NCc1cccnc1 | 7.6
CCOC(=O)Cn1cnc(I)c1[N+](=O)[O-] | 8.6
Cn1cnc(I)c1[N+](=O)[O-] | 19.4
COCC(O)Cn1cnc([N+](=O)[O-])c1I (stereo not given) | 2.6
O=[N+]([O-])c1[nH]cnc1I | 1.9
Cn1cnc([N+](=O)[O-])c1I | 10.1
O=C(Cn1cnc([N+](=O)[O-])c1I)NCc1cccnc1 | 2.9
